Sourced from ChEMBL document CHEMBL1201862

- System: EKVX
- runDescription: NCI tumour cell line growth inhibition, 48 h
Activity calls are given as the source filed them. Rule as the data show it: active = GI50 up to about 1.1 µM and inactive = higher.
The entries below are paired with their reported GI50.

Known GI50 results, listed for orientation:
Cc1ccc(S(N)(=O)=O)cc1 [P-TOLUENESULFONAMIDE]; > 1000 µM (inactive)
COc1ccc2nc3cc(Cl)ccc3c(Sc3ccccc3[N+](=O)[O-])c2c1; > 100 µM (inactive)

In the following, a different molecule is considered.
The molecule identified as "O=C1/C(=C\c2ccc(Cl)cc2Cl)Sc2scc(-c3ccc(O)c(O)c3)[n+]21" registered its GI50 at 19.9 µM (inactive)

====

- Tested on: OVCAR-3
- runDescription: NCI tumour cell line growth inhibition, 48 h
Active and inactive are the calls of the source. Rule as the data show it: active = GI50 up to about 1.1 µM and inactive = higher.
Below, each entry is listed alongside its reported GI50.

Example cases with answers are listed next.
CN1C/C(=C\c2ccco2)c2nc(N)nc(-c3ccco3)c2C1; 43.9 µM (inactive)
CCOC(=O)C(C(N)=O)C1=Nc2cc([N+](=O)[O-])ccc2N/C1=C\C(=O)c1ccccc1 (stereo not given); 10.3 µM (inactive)
O=C(Nc1ccn(C2CC(I)C(COC(c3ccccc3)(c3ccccc3)c3ccccc3)O2)c(=O)n1)c1ccccc1 (stereo not given); 4.25 µM (inactive)
O=C(O)/C=C(/C(=O)O)C12CCN3CC4=CCOC5CC(=O)NC1C5C4CC32 (stereo not given); > 100 µM (inactive)
N#CC(C(=O)CCC(=O)Nc1ccc(Cl)c(Cl)c1)c1ccccc1 (stereo not given); > 100 µM (inactive)
COc1ccccc1/C=N/C12CC3CC(CC(C3)C1)C2; > 100 µM (inactive)
Cc1cccc2oc3c(CC(=O)O)cccc3c(=O)c12; > 100 µM (inactive)
S=C1CSc2c(cnc3ccccc23)N1; > 100 µM (inactive)

In plain terms, CC(C)CC(NC(=O)OC(C)(C)C)C(=O)Nc1ccc(Nc2nc(F)nc(-c3c4ccccc4c4n3CCS4)n2)cc1 (stereo not given) has a documented GI50 of 20.3 µM (inactive)

Please fill in: GI50 reported for C#CCN(N=O)C(=O)NC(CCCNC(=O)OCc1ccccc1)C(=O)OCc1ccccc1 (stereo not given) = > 100 µM (inactive)

====

Entries and their GI50
- System: 786-0
- runDescription: NCI tumour cell line growth inhibition, 48 h
The source made the active and inactive calls. Cut-off read from the data, not from the text of the source: active = GI50 up to about 1.1 µM and inactive = higher.

Take a look at these entries with their results.
Cc1cc2ccccc2c[n+]1CC(=O)CC([O-])(C(F)(F)F)C(F)(F)F; > 100 µM (inactive)
O=c1[nH]nc(Cc2ccccc2)n1/N=C/c1cccnc1; > 100 µM (inactive)
O=C(c1ccccc1)[C@H]1Nc2ccc(Cl)cc2C2c3ccccc3CC21 (stereo partly specified); 30.8 µM (inactive)
Cc1cn(C2CC(N=[N+]=[N-])C(CO[Si](C)(C)C(C)(C)C)O2)c(=O)[nH]c1=O (stereo unspecified); 15.6 µM (inactive)
CC12CCC(=O)N1c1cncnc1N2 (stereo unspecified); > 10 µM (inactive)

Form field GI50 for item COC(=O)C(=O)C(C(=O)C(=O)Nc1ccc([N+](=O)[O-])cc1C#N)c1nc2ccc([N+](=O)[O-])cc2nc1O (stereo unspecified) on 786-0: > 100 µM (inactive)

Let me check: C=CCOc1ccc(C2C(C(=O)OCC)C(=O)CC(C)(O)C2C(=O)OCC)cc1OC (stereo unspecified) , system 786-0, measured GI50 is > 100 µM (inactive)

====

- Tested on: SK-MEL-5
- runDescription: NCI tumour cell line growth inhibition, 48 h
Active and inactive are the calls of the source. No stated cut-off is given here; in the data, active = GI50 up to about 1.1 µM and inactive = higher.
Choose the fitting class; nothing outside active, inactive is accepted.

Some solved entries appear below for comparison.
CCOP(=O)(OCC)[C@]12C[C@@H](C)C=C[C@H]1COC2=O; inactive
CCN1CCN=c2c3cc(OC)ccc3n3cnc4ccc1c2c43; active
Cc1ccc2c(c1)-c1nc(N)c(C#N)c(-c3ccccc3)c1CCS2(=O)=O; inactive

What was the test verdict on "Cn1c(-c2cccs2)cc(-c2cccs2)c1-c1ccsc1" ? inactive

What was the test verdict on "Cc1nc2c(o1)/C(=N\c1ccccc1)c1nc(C)oc1/C2=N/c1ccccc1" ? active

State the result this test recorded for "CC(=O)NNc1nc(C)c(C(=O)NNC(=O)C(=O)Nc2nc3ccc([N+](=O)[O-])cc3s2)s1" . inactive

Hi team, can someone confirm the assay call for CC1=NC(C(C)C)C(=O)O1 (configuration not stated) ? inactive

I'd appreciate the recorded outcome for "Cc1ccc(C(=O)N/N=C(\N=N\c2cccc(Cl)c2)c2ccc(N(CCC#N)CCC#N)cc2C)cc1" from this test. inactive

====

- System: A498
- runDescription: NCI tumour cell line growth inhibition, 48 h
Active and inactive are the calls of the source. Cut-off read from the data, not from the text of the source: active = GI50 up to about 1.1 µM and inactive = higher.
measurementKind: GI50

Recorded GI50 (compound O=[N+]([O-])C1=Cc2c(O)ccc(O)c2C2c3ccccc3NC12 (stereo not given) ): 14.7 µM (inactive)

Lab book: GI50 of "CC(=O)C(CN1C(=O)c2ccccc2C1=O)C(C)=O" noted as > 100 µM (inactive)

The recorded GI50 for "Cc1cc(C)n(CN(Cn2nc(C)cc2C)C2CCCCC2)n1" is > 100 µM (inactive)

Quick note, GI50 for "O=[N+]([O-])c1ccc(N/N=C(\c2ccccc2)c2ccccn2)nc1" landed at > 100 µM (inactive)

Value of GI50 reported for the compound "Cc1cc2c(c(C#N)c1C)NC(=O)CCC2=O" is > 100 µM (inactive)

====

Measured GI50, listed per entry.
- Tested on: OVCAR-3
- runDescription: NCI tumour cell line growth inhibition, 48 h
Calls of active or inactive are those of the source. Rule as the data show it: active = GI50 up to about 1.1 µM and inactive = higher.

O=C1CC(Nc2ccccc2)c2c(Cl)sc(Cl)c21 (stereo unspecified); 1.79 µM (inactive)
COc1ccc(/C=C2\CCC(C)c3c2nc(N)c(C#N)c3-c2ccc(OC)c(OC)c2)cc1OC (stereo unspecified); 9.29 µM (inactive)
CCOC(=O)CNc1nc(=O)c2c(=O)oc(Cl)cc2o1; 12.9 µM (inactive)
CC1(C)OC2COC3(CNO)OC(C)(C)OC3C2O1 (stereo unspecified); > 100 µM (inactive)
Cc1cc(S(=O)(=O)Nc2nc(N)n(-c3cnc4ccccc4n3)n2)c(S)cc1Cl; > 100 µM (inactive)
Cc1c(Cc2ccccc2)c(Cc2ccccc2)c(C)[s+]1[O-]; 30.8 µM (inactive)

// GI50 lookup, compound = "O=C1OI(C#Cc2ccccc2)c2ccccc21" , result: 2.64 µM (inactive)

Summary for this compound, COc1cccc2ccc3c(c12)C(=O)OC31CCc2c(C)cccc21 (stereo unspecified) : GI50 is 10.3 µM (inactive)

Per the record, "N#Cc1c2c([nH]c(=O)c1C#N)CCCC2" has GI50 of > 100 µM (inactive)

Given item "Cc1nn(CN2CCN(C)CC2)c(=S)n1/N=C/c1ccc(-c2ccc(Cl)cc2Cl)o1" , the value recorded as its GI50 is 64 µM (inactive)

The value of GI50 measured for the compound CC(=O)OCC12CC(CC1OC(C)=O)c1ccccc12 (stereo unspecified) turned out to be > 100 µM (inactive)

====

- System: ACHN
- runDescription: NCI tumour cell line growth inhibition, 48 h
Activity calls are given as the source filed them. No stated cut-off is given here; in the data, active = GI50 up to about 1.1 µM and inactive = higher.
molecules and their reported GI50

Worked cases, GI50 given:
CC(C)(C)[Si](OC1CC(n2cnc3c(N)ncnc32)OC1CO)(c1ccccc1)c1ccccc1 (centres undefined); 13.6 µM (inactive)
CCOC(=O)c1nc2ccccc2nc1NCc1ccc(OC)c(OC)c1; > 100 µM (inactive)

Reading of GI50 for "COc1cc(C)cc2c(-c3c(O)cc(O)c4c3C[C@H](C)N[C@H]4C)cc(-c3cc(-c4c(O)cc(O)c5c4C[C@H](C)N[C@H]5C)c4cc(C)cc(OC)c4c3O)c(O)c12" with ACHN: > 100 µM (inactive)

Assay ACHN, sample "CS(=O)(=O)N(CCC#N)c1ccc(/C=N/NC(=O)CC(=O)Nc2cccc(Cl)c2)cc1" , GI50 read: > 100 µM (inactive)

====

Measured GI50 accompanies every entry in the list below.
- Test system: SW-620
- runDescription: NCI tumour cell line growth inhibition, 48 h
Active and inactive are the calls of the source. Rule as the data show it: active = GI50 up to about 1.1 µM and inactive = higher. Residues, ends and D or L forms follow the SMILES beside them. *: point of attachment. Cbz = O=C(OCc1ccccc1)*

The following compounds have reported results that may help.
Cc1cc(S(=O)(=O)Nc2nc(N)n(-c3cnc4ccccc4n3)n2)c(S)cc1Cl; > 100 µM (inactive)
Sc1nnc(-c2ccccc2)n1/N=C\c1ccc(-c2ccc(Cl)cc2)o1; > 100 µM (inactive)
O=C1NC2c3c(I)sc(I)c3C(O)C2O1 (stereo not given); > 100 µM (inactive)
N#CCCN(CCC#N)CCN(CCN(CCC#N)CCC#N)CCN(CCC#N)CCC#N; > 100 µM (inactive)
CC(NC(=O)C(NC(=O)OCc1ccccc1)C(C)C)C(=O)NCC(=O)O (stereo not drawn) (Cbz-Val-Ala-Gly-OH; configuration not given here); > 100 µM (inactive)

Consider O=C(NNCC(O)COc1ccccc1)c1ccccc1 (stereo not given) . Its measured GI50 is > 100 µM (inactive)

Short answer for C1=C2C3=[N+](CCCC3)CC2Cc2sccc21 (stereo not given) : GI50 was > 100 µM (inactive)

Recorded GI50 (compound "COC(=O)c1ccc2c(c1)S/C(=C/c1ccc3ccc4cccc5ccc1c3c45)S2" ): 27.6 µM (inactive)

Memo: "Cn1c(=O)[nH]c2[nH]c3ccccc3c2c1=O" , reported GI50: > 100 µM (inactive)

Reported GI50 of CCCCCCCCC/C=C1/CC(CO)(COC(=O)c2ccccc2)OC1=O (stereo not given) : 14.4 µM (inactive)
